test system: SH-SY5Y; assay: Neuroprotective activity against H2O2-induced neuronal cell death in human SH-SY5Y cells assessed as cell viability at 50 uM pretreated for 12 hrs followed by H2O2 addition measured after 3 hrs by MTT assay relative to control; type: functional; settings: read-out: Activity
Parameter: viability at 50 µM. Scope: all listed entries.
EXPERIMENTAL_READOUT: viability at 50 µM (%)

>>> observed_result("C[C@@H]1O[C@@H](O[C@H]2[C@H](O)[C@@H](O)[C@H](O[C@@H]3CC[C@]4(C)[C@H](CC[C@@]5(C)[C@H]4CC=C4[C@H]6CC(C)(C)CC[C@@]6(CO)[C@H](O)C[C@@]45C)C3(C)C)O[C@@H]2CO[C@H]2O[C@@H](CO)[C@H](O)[C@@H](O)[C@@H]2O)[C@H](O)[C@H](O)[C@H]1O")
53
>>> observed_result("CC1(C)CC[C@@]2(CO)C(=C3C=C[C@@H]4[C@@]5(C)CC[C@H](O)[C@@](C)(CO)[C@@H]5CC[C@@]4(C)[C@]3(C)C[C@H]2O)C1")
82.5
>>> observed_result("C[C@H]1O[C@@H](O[C@H]2CC[C@@]3(C)[C@@H](CC[C@]4(C)[C@@H]3[C@H](O)C=C3[C@@H]5CC(C)(C)CC[C@]5(CO)[C@@H](O)C[C@]34C)[C@]2(C)CO)[C@H](O)[C@@H](O[C@@H]2O[C@H](CO)[C@@H](O)[C@H](O)[C@H]2O)[C@H]1O")
54.4
>>> observed_result("CC1(C)CC[C@]23CO[C@@]4(C=C[C@@H]5[C@@]6(C)CC[C@H](O)[C@@](C)(CO)[C@@H]6CC[C@@]5(C)[C@]4(C)C[C@@H]2O)[C@@H]3C1")
74.2
